Tested on: male mice (ICR strain, 5 week old)
assay-notes: Acute toxicity (LD50), intraperitoneal (Table 1)
Type: in vivo
conditions-used: observed 1 week after administration, 10080 min
Counter-ions that a name gives are not always drawn.
Reported Acute Toxicity (LD50) is given for each of the following molecules.
measured-metric: Acute Toxicity (LD50)

>>> df
                                   molecule    recorded_result
0  O=C(O)c1ccc(Oc2ccc(Cl)cc2)cn1 [5-(p-Chlorophenoxy)picolinic Acid, 5-(p-chlorophenoxy)picolinic acid]   150 to 200 mg/kg
1  O=C(O)c1ccc(OCCCCCl)cn1 [Calcium Salt of 5-(4-Chlorobutoxy)picolinic Acid] [Calcium 5-(4-chlorobutoxy)picolinate]  800 to 1000 mg/kg
2  O=C(O)c1ccc(OCCCCCl)cn1 [5-(4-Chlorobutoxy)picolinic Acid, 5-(4-chlorobutoxy)picolinic acid]   150 to 200 mg/kg
3  O=C(O)c1ccc(Oc2ccc(Cl)cc2)cn1 [Calcium Salt of 5-(p-Chlorophenoxy)picolinic Acid]   350 to 400 mg/kg
4  O=C(O)c1ccc(OCCCCC(F)(F)F)cn1 [Calcium Salt of 5-(5,5,5-Trifluoropentyloxy)picolinic Acid]   800 to 900 mg/kg
5  O=C(O)c1ccc(OCCCCC(F)(F)F)cn1 [5-(5,5,5-Trifluoropentyloxy)picolinic Acid]   150 to 200 mg/kg
